# Assay System: STK33 (human) (UniProt Q9BYT3)
# Sequence (Q9BYT3 whole entry, looked up): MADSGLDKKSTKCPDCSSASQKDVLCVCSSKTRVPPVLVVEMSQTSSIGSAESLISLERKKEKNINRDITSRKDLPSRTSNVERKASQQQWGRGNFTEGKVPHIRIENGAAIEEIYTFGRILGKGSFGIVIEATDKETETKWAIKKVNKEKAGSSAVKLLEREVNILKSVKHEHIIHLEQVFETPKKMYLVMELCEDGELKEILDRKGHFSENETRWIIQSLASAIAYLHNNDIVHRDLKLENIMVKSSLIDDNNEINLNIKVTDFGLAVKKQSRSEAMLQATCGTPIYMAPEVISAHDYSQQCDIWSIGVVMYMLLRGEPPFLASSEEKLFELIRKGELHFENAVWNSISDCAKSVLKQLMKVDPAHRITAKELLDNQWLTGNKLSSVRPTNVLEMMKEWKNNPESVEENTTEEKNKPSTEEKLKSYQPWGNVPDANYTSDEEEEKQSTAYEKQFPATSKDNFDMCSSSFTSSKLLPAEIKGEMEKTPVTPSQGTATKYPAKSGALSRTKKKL
# Test Description: KINOMEscan competition binding
# Assay Conditions: compound 10.0 µM
kinase still bound, per cent of control less than 70% is T; kinase still bound, per cent of control greater than or equal to 70% is F.

Q. Is the reported kinase still bound, per cent of control for CS(=O)(=O)N1CCN(Cc2cc3nc(-c4cccc5[nH]ncc45)nc(N4CCOCC4)c3s2)CC1 strictly below 70%?
A. F

Q. Please give the result for O=C1NC(=O)/C(=C/c2ccc3nccc(-c4ccncc4)c3c2)S1 too.
A. T

Q. Please give the result for COc1cc2ncnc(-n3nc(-c4ccccn4)nc3N)c2cc1OC too.
A. T

Q. Please give the result for CCN(CC)CCCCNc1ncc2cc(-c3cc(OC)cc(OC)c3)c(NC(=O)NC(C)(C)C)nc2n1 too.
A. F

Q. Please give the result for O=C(Nc1cccc(Nc2ncc(Br)c(NCCc3cnc[nH]3)n2)c1)N1CCCC1 too.
A. T

Q. Please give the result for COc1cc(N2CCN(C)CC2)ccc1Nc1ncc2c(n1)N(C)c1ccccc1C(=O)N2C too.
A. T

Q. Please give the result for Cc1n[nH]c2ccc(-c3cncc(OC[C@@H](N)Cc4c[nH]c5ccccc45)c3)cc12 too.
A. T

Q. Please give the result for C[C@@H](Oc1cc(-c2cnn(C3CCNCC3)c2)cnc1N)c1c(Cl)ccc(F)c1Cl too.
A. T

Q. Please give the result for NC(=O)Nc1cc(-c2cccc(F)c2)sc1C(=O)N[C@@H]1CCCNC1 too.
A. T

Q. Please give the result for C=CC(=O)Nc1ccc(CN(C(=O)Nc2c(Cl)c(OC)cc(OC)c2Cl)c2cc(Nc3ccc(N4CCN(C)CC4)cc3)ncn2)cc1 too.
A. T

Q. Please give the result for COc1cc2ncn(-c3cc(OCc4ccccc4C(F)(F)F)c(C(N)=O)s3)c2cc1OC too.
A. T

Q. Please give the result for CNC(=O)c1cc(Oc2ccc(NC(=O)Nc3ccc(Cl)c(C(F)(F)F)c3)cc2)ccn1 too.
A. T

Q. Please give the result for CCN1CCN(C(=O)Cc2ccc(Nc3ncc(F)c(Nc4ccc(C(=O)Nc5ccccc5Cl)cc4)n3)cc2)CC1 too.
A. T

Q. Please give the result for COc1ccc(N(C(=O)Oc2c(C)cccc2C)c2ccnc(Nc3ccc(N4CCN(C)CC4)cc3)n2)c(OC)c1 too.
A. T

Q. Please give the result for CNC(=O)c1ccc(Nc2cc(Nc3ccccc3S(=O)(=O)C(C)C)c3cc[nH]c3n2)nc1 too.
A. T

Q. Please give the result for N#CCNC(=O)c1ccc(-c2ccnc(Nc3ccc(N4CCOCC4)cc3)n2)cc1 too.
A. F

Q. Please give the result for CCN(CC)CCCCNc1ncc2c(n1)N(C)C(=O)N(c1c(Cl)c(OC)cc(OC)c1Cl)C2 too.
A. F

Q. Please give the result for O=c1cc(N2CCOCC2)oc2c(-c3cccc4c3sc3ccccc34)cccc12 too.
A. F

Q. Please give the result for CN(C)C/C=C/C(=O)Nc1ccc(C(=O)Nc2cccc(Nc3nccc(-c4cccnc4)n3)c2)cc1 too.
A. F

Q. Please give the result for C=CC(=O)Nc1cc(-n2c(=O)ccc3cnc4ccc(-c5cn[nH]c5)cc4c32)ccc1C too.
A. F

Q. Please give the result for COc1cc(C(=O)N2CCC(N3CCN(C)CC3)CC2)ccc1Nc1ncc2c(n1)N(C)c1ccccc1C(=O)N2C too.
A. T

# credit: the kinase profiling compilation of Christmann-Franck et al. (2016)
